- target.or.system: hERG potassium channel (Homo sapiens, UniProt Q12809)
- Construct: expressed in transfected cells
- Sequence (Q12809 whole entry): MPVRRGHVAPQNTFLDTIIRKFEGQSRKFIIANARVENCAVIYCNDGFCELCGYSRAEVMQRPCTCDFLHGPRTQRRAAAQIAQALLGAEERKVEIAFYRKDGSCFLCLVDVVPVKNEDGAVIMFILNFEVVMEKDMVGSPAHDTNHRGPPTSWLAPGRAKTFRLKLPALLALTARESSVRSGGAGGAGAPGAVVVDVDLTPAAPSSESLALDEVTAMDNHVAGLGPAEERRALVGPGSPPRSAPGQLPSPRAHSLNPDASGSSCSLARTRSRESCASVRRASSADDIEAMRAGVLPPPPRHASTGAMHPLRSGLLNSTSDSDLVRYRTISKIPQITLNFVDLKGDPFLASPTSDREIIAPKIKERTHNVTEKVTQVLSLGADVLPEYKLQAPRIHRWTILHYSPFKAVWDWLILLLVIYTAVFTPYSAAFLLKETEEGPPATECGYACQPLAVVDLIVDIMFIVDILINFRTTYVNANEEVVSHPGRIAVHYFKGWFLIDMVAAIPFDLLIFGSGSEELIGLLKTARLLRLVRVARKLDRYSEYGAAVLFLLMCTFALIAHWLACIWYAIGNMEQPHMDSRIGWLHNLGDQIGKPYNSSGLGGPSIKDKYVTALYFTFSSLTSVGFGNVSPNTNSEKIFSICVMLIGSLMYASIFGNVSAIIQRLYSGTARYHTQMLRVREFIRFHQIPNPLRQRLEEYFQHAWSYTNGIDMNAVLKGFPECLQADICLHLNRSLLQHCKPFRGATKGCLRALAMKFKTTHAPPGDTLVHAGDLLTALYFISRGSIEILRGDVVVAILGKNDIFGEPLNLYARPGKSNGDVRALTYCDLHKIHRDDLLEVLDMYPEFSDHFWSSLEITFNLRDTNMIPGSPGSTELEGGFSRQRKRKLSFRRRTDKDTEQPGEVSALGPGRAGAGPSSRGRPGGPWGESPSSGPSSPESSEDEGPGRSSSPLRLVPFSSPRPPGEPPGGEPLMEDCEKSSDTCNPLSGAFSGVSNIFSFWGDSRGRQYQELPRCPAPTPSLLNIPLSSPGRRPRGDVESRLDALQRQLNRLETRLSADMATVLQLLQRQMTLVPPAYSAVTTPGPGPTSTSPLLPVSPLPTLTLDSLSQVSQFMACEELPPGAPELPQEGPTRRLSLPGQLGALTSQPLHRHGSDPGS
- procedure.text: Whole cell patch clamp, inhibition of hERG tail current
- Format: cell-based
- condition.details: human, hERG cells (host cell line not named), pH 7.4; whole cell patch clamp, logistic fit
measurement.label: IC50 (µM)
Answers are plain numbers, in µM.

CNCc1cc(-c2ccccc2F)n(S(=O)(=O)c2cccnc2)c1 ... 15.9
CNCc1cc(-c2ccccc2F)n(S(=O)(=O)c2cccc(OC)c2)c1 ... 3.95

Consider the additional molecule presented here.
Tell me the measured IC50 of CNCc1cc(-c2ccccc2F)n(S(=O)(=O)c2cccc(OCCCOC)c2)c1 , please.
18.7

###

- target.or.system: H^+/K^+-ATPase (Oryctolagus cuniculus, UniProt P27112)
- Construct: collecting the middle layer (H^+/K^+-ATPase enriched gastric membranes) into a clean centrifugal tube
- Sequence (P27112 whole entry): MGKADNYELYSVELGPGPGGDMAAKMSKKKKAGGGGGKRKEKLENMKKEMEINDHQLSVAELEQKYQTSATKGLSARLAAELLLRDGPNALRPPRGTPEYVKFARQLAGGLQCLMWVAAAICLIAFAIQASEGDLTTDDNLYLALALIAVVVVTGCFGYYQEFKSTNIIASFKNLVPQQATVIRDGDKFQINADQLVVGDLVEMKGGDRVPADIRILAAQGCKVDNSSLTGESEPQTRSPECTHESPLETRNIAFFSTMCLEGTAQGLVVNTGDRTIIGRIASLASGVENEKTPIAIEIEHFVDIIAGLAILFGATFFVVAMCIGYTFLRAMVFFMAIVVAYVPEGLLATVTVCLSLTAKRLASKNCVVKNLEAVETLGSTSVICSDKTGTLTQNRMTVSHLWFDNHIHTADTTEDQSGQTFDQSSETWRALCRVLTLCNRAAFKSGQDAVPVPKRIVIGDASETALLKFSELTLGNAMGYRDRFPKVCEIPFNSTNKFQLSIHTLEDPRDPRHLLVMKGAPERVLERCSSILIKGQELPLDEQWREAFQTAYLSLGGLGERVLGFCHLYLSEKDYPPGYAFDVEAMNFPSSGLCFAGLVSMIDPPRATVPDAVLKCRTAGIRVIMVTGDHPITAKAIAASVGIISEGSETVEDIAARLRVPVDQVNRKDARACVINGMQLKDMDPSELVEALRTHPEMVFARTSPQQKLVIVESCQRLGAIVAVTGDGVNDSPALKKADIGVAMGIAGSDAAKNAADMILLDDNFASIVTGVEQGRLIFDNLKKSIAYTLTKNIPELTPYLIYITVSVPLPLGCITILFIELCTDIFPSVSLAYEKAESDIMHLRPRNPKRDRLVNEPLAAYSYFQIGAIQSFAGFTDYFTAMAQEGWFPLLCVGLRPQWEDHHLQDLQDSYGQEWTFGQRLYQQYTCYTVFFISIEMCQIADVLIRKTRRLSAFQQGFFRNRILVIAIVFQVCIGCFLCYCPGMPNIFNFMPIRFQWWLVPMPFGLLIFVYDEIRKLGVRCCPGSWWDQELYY
- Sequence (P18597 whole entry partner): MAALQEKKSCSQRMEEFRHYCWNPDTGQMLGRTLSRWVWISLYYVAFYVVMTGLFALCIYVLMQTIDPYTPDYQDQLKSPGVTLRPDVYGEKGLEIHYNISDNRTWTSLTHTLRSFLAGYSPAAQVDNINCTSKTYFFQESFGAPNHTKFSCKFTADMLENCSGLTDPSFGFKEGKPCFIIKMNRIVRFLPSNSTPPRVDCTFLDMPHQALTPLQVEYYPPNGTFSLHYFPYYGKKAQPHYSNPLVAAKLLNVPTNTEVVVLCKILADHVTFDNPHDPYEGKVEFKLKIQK
- procedure.text: Inhibition of H+/K+-ATPase enzymatic activity (rabbit gastric mucosal microsomes, malachite green)
- condition.details: pH 6.5, 37° C. 30 min, read-out: The median inhibitory concentration (IC50) of the compound to the activity of H^+/K^+-ATPase
pIC50: −log10 of the molar value.
What pIC50 was measured for each of the following?

Take a look at these entries with their results.
CNCc1cc(-c2ccccc2F)n(S(=O)(=O)c2cccc(OCCN3CCOCC3)c2)c1 ... 6.00 to 7.00
CNCc1cc(-c2ccccc2F)n(S(=O)(=O)c2cccc(OC3CCN(C(C)=O)C3)c2)c1 (centres unmarked) ... 6.00 to 7.00
CNCc1cc(-c2ccccc2F)n(S(=O)(=O)c2cccc(OC)c2)c1 ... > 7.00
CNCc1cc(-c2ccccc2F)n(S(=O)(=O)c2cccc(OCCN3CCCCC3)c2)c1 ... 5.30 to 6.00

State recorded pIC50 for all listed compounds.
1. CNCCCOc1cccc(S(=O)(=O)n2cc(CNC)cc2-c2ccccc2F)c1
2. CNCc1cc(-c2ccccc2F)n(S(=O)(=O)c2cccnc2)c1
3. CNCc1cc(-c2ccccc2F)n(S(=O)(=O)c2cccc(OCCOc3ccccc3)c2)c1
4. CNCc1cc(-c2ccccc2F)n(S(=O)(=O)c2cccc(OCC(C)(C)COC)c2)c1
5. CNCc1cc(-c2ccccc2F)n(S(=O)(=O)c2cccc(NCCN3CCOCC3)c2)c1
6. CNCc1cc(-c2ccccc2F)n(S(=O)(=O)c2cccc(OCCCS(C)(=O)=O)c2)c1
7. CNCc1cc(-c2ccccc2F)n(S(=O)(=O)c2cccc(OCC(=O)NC)c2)c1
8. CNCc1cc(-c2ccccc2F)n(S(=O)(=O)c2cccc(OCCOC)c2)c1

6.00 to 7.00
> 7.00
> 7.00
6.00 to 7.00
6.00 to 7.00
> 7.00
6.00 to 7.00
6.00 to 7.00

State recorded pIC50 for all listed compounds.
1. CNCc1cc(-c2ccccc2F)n(S(=O)(=O)c2cccc(OCC3CNCCO3)c2)c1 (centres unmarked)
2. CNCc1cc(-c2ccccc2F)n(S(=O)(=O)c2cccc(OCCCOC)c2)c1

["6.00 to 7.00", "> 7.00"]
